# study.system: complex II (Homo sapiens, UniProt O14521+P21912+P31040+Q99643)
# Sequence (P31040 43-664): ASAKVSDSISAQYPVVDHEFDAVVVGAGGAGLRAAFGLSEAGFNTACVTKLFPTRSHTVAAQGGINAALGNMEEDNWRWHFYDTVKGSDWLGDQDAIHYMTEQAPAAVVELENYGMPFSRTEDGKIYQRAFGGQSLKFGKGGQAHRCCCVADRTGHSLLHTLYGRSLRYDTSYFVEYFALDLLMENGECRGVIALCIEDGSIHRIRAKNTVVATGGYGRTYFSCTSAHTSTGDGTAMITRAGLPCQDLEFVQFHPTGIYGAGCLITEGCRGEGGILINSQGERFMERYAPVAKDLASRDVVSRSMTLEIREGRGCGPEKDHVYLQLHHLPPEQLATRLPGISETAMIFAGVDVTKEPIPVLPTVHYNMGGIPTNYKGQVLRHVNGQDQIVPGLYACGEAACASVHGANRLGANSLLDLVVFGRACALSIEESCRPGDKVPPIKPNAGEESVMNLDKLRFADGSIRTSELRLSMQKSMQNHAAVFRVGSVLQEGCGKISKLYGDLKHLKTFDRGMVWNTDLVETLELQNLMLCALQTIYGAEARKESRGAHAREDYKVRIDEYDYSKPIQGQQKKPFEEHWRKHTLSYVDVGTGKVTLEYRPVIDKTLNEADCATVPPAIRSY
# Sequence (P21912 29-280): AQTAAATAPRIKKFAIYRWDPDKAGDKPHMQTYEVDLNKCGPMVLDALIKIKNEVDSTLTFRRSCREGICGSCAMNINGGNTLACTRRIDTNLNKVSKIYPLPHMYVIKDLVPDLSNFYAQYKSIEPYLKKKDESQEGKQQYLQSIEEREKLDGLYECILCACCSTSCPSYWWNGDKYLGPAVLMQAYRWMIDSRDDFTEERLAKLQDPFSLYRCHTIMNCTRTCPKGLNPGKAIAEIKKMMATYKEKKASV
# Sequence (Q99643 30-169): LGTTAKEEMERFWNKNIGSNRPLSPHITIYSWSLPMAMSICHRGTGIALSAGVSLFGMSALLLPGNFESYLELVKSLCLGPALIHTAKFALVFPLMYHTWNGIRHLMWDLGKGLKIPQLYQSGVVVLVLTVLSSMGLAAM
# Sequence (O14521 57-159): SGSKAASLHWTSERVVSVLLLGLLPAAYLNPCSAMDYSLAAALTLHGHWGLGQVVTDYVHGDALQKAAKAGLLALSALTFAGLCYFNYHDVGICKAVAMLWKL
# protocol: Complex II driven respiration in SH-SY5Y cells
# Assay type: cell-based
# Parameters: endogenous in cells; host or cells: SH-SY5Y
# run.conditions: 10^−4 M, means ± SD of 4-6 detections
Readings of inhibition at 100 µM for the listed molecules
Provide only the numeric value, understood in %.

Guide cases for inhibition at 100 µM, answers given:
| molecule | study.system | numeric.result |
| --- | --- | --- |
| CNCCC(Oc1ccc(C(F)(F)F)cc1)c1ccccc1 (centres unmarked) | complex II (Homo sapiens, UniProt O14521+P21912+P31040+Q99643) | 25.3 |
| CN(C)CCCN1c2ccccc2CCc2ccc(Cl)cc21 | complex II (Homo sapiens, UniProt O14521+P21912+P31040+Q99643) | 22.1 |
| CN(C)CCCN1c2ccccc2Sc2ccc(Cl)cc21 | complex II (Homo sapiens, UniProt O14521+P21912+P31040+Q99643) | 14.9 |
| CN1CCN(C2=Nc3cc(Cl)ccc3Nc3ccccc32)CC1 | complex II (Homo sapiens, UniProt O14521+P21912+P31040+Q99643) | 2.6 |

**Query** Annotate the molecule `O=C(CCCN1CCC(O)(c2ccc(Cl)cc2)CC1)c1ccc(F)cc1` with its measured inhibition at 100 µM.
**Result** 2.9
